Target: T1, hOX40-EC-His (human, UniProt P43489 29-214)
T1 construct: extracellular domain; bought protein; also called recombinant human OX40 antigen protein; human OX40 extracellular segment antigen; not shown: 6 His label
T1 sequence (looked up): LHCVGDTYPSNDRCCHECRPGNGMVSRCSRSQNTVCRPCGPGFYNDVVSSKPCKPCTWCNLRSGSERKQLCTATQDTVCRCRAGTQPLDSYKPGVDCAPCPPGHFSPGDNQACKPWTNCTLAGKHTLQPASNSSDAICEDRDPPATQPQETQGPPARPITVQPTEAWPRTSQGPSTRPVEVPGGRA
Assay: ELISA, supernatant diluted 100 times, coated OX40 (CK60)

binder: 48D10-5 (antibody, V domains shown, hybridoma antibody, tested as culture supernatant) VH: QVQLVQSGAEVKKPGASMKVSCKASGYTFANFGINWVRQAPGQGLEWMGWISAYNGYTNYAQQFQGRITMTTDTSTSTAYMELRSLRSDDTAIYYCVIWFGELLSFDYWGQGTLVTVSS VL: DIQMTQFPSSLSASVGDRVTITCRASQDISNYLAWFQQKPGKAPKSLIYAASSLQSGVPSKFSGNGFGTDFTFPLSRMQPEDFASSYCQQYNNYTFTFGRGTKVEIKR
unitAnnotation: OD450
450 nm light absorption: 2.35
//
binder: 4D9-12 (antibody, V domains shown, hybridoma antibody, tested as culture supernatant) VH: QVQLQESGPGLVKPSGTLSLTCAVSGGSISSSNWWSWVRQPPGKGLEWIGEIYHSGNTIYNPSLKSRVTISLDKSKNQFSLKLSSVTAADTAVYYCASSGSLYMDVWGKGTTVTVSS VL: DIQMTQSPSSLLSSVGDRVTISCRASHGSSTYLNWYQQKPGKAPRLLIYGASSLQSGVPSRFSGSGFGTDFILTISSMQPEDFATYYCQQSYSIPITFGQGTRLEIKR
unitAnnotation: OD450
450 nm light absorption: 1.26
//
binder: 55H6-6 (antibody, V domains shown, hybridoma antibody, tested as culture supernatant) VH: QVQLVQSGAEVKKPGASVKVSCKASGYTFTSYGISWVRQAPGQGLEWMGWISAYNGHTNYAQKLQGRVTMTTDTSTNTAYMELWSLRSDDTAVYYCTSDYGDYWGQGTLVTVSS VL: DVVVTQSPLSLPVTLGQPASISCRSSQSLVYSDGNTNLYWFQQRPGQSPRRLIYQVSNRDSGVPDRFSGSGSGTDFTLKISRVEAEDVGVYYCMQGTHWPPALTFGGGTEVEIKR
unitAnnotation: OD450
450 nm light absorption: 1.9
//
binder: 24E10-4 (antibody, V domains shown, hybridoma antibody, tested as culture supernatant) VH: QVQMQESGPGLVKPSGTLSLTCAVSGGSISSSKWWSWVRQPPGKGLEWIGEIYHSGSTNYNPSLKSRVTISIDKSKNQFSLRLTSVTAADTAVYYCARGDVLLWFGGQGTLVTVSS VL: EIVLTQSPGTLSLSPGERATLSCWASQSVSSTYLAWYQQKPGQAPRLLIYGASIRATGIPDRFSGSGSGTDFTLTISSLEPEDFAVYYCQQYGSSPITFGQGTRLEIKR
unitAnnotation: OD450
450 nm light absorption: 2.4
//
binder: 29B8-3 (antibody, V domains shown, hybridoma antibody, tested as culture supernatant) VH: QVQLQESGPGLVKPSGTLSLTCAVSGVSISSSNWWSWVRQPPGKGLEWIGEIYHSGNTNYNPSLKSRVTISVDKSKNQFSLKLSSVTAADTAVYYCAETSTITTNYWGQGTLVTVSS VL: DIQMTQSPSSLSASVGDRVTITCRASQTISSYLNWYQQKPGKAPKLLIYAASSLQSGVPSRFSGSESGTDFTLTISSLQPEDFATYYCQQTYSIPITFGQGTRLEIKR
unitAnnotation: OD450
450 nm light absorption: 2.36
